Kindly supply the reported protein stability index values for the records listed here.
B1: CLCN6 (parent)
chain: FQSISLRKIQFNFPYFRSDRDKRD

- Variants of: B1
- test details: protein stability index of a GFP-peptide fusion (GPS, HEK-293T) (PSI 1-6); higher = more stable;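 further: lentivirally expressed fusions sorted by FACS into six bins by GFP to DsRed ratio, PSI derived from sequencing read proportions per bin multiplied by bin number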
- assay context: c terminus: a fixed tail appended
Please reply with the value in numeric form only.

GET /value?item= Q2S &field=protein stability index returns 1.96

Item: R20T | protein stability index: 1.25

Given item F1C , the value recorded as its protein stability index is 2.4

Per the records, this variant ( Y15I ) has protein stability index equal to 2.15

Sure, the documented protein stability index for D21C is 2.4

protein stability index reading for L6E : 2.08

Briefly, protein stability index measured for Q2G : 1.54

// recorded protein stability index for Q2K : 2.5

The reported value for F13E in terms of protein stability index is 3.21

Record F1E , field protein stability index: 4

Data point: I9R ; protein stability index = 2.02

Given item K22W , the value recorded as its protein stability index is 2.09

Measured protein stability index of D19P : 2.16

For this variant ( N12V ), measured protein stability index is 1.9

protein stability index recorded for this variant, I4Y , is 1.42

# protein stability index of L6N = 1.68

So for I9L , the logged protein stability index turned out to be 1.62

According to the records, this variant D21P displays protein stability index of 2.61

Form field protein stability index, entry S18R : 2.16

Kindly note the recorded protein stability index for R17P , which is 2.28

Measured protein stability index of F1P : 2.29

Notebook: D24P , protein stability index read as 2

// sample I4V , its protein stability index was 1.98

Value of protein stability index reported for the variant N12R is 2.59

What the record says about Y15C : protein stability index is 2.21

Recorded protein stability index (variant F11S ): 1.56

So for N12E , the logged protein stability index turned out to be 1.5

Lab book: protein stability index of L6S noted as 1.66

According to the records, this variant S18P displays protein stability index of 1.6

response.value for R17D (field: protein stability index) = 3.03

Just so you know, measured protein stability index for R17V came out at 2.15

The variant listed as R7M has a reported protein stability index of 1.21

Data point: I4N ; protein stability index = 1.98

Reported protein stability index of F11L : 2.54

protein stability index measured on F1K = 3.31

What the record says about F1H : protein stability index is 2.83

Record F1A . Reported protein stability index: 2.6

For this variant ( P14E ), measured protein stability index is 1.99

Form: variant = R20C ; protein stability index = 1.23

protein stability index for K8L is 2.64

Looking up Y15V , I see its protein stability index listed as 2.22

The variant identified as S3W registered its protein stability index at 2.4

Entry S18M , protein stability index reported as 1.38

Lab note: I9D gave protein stability index of 1.72

Briefly, protein stability index measured for R17E : 2.26

Entry Y15P — recorded protein stability index = 2.41
